// reported remaining activity at 10 µM per item
Target: 20S proteasome chymotrypsin-like activity (Homo sapiens)
Test: Chymotrypsin-like activity inhibition test
Format: biochemical
Settings: read-out: % Control, Chymotrypsin-like Activity
Residues, ends and D or L forms follow the SMILES beside them. *: point of attachment. Cbz = O=C(OCc1ccccc1)*
Give just the numeric value; % need not be written.

Worked examples, 6 compounds total:
[
  {
    "Compound": "CCN(CC)CCOc1ccc(C2=C(c3ccccc3)CCc3cc(OCCN(CC)CC)ccc32)cc1",
    "Endpoint Unit": "%",
    "remaining activity at 10 µM": 49.6
  },
  {
    "Compound": "c1ccc(C2=C(c3ccc(OCCN4CCOCC4)cc3)c3ccc(OCCN4CCOCC4)cc3CC2)cc1",
    "Endpoint Unit": "%",
    "remaining activity at 10 µM": 22.1
  },
  {
    "Compound": "CN(C)CCOc1ccc(C2=C(c3ccccc3)CCc3cc(OCCN(C)C)ccc32)cc1",
    "Endpoint Unit": "%",
    "remaining activity at 10 µM": 99.5
  },
  {
    "Compound": "CC(C)C[C@@H](C=O)NC(=O)[C@H](CC(C)C)NC(=O)[C@H](CC(C)C)NC(=O)OCc1ccccc1 [MG132, reference compound] (Cbz-Leu-Leu-Leu-aldehyde)",
    "Endpoint Unit": "%",
    "remaining activity at 10 µM": 0
  },
  {
    "Compound": "c1ccc(C2=C(c3ccc(OCCN4CCCC4)cc3)c3ccc(OCCN4CCCC4)cc3CC2)cc1",
    "Endpoint Unit": "%",
    "remaining activity at 10 µM": 27.1
  },
  {
    "Compound": "c1ccc(C2=C(c3ccc(OCCN4CCCCCC4)cc3)c3ccc(OCCN4CCCCCC4)cc3CC2)cc1",
    "Endpoint Unit": "%",
    "remaining activity at 10 µM": 34.2
  }
]

Next compound, please.
Input line: remaining activity at 10 µM for c1ccc(C2=C(c3ccc(OCCN4CCCCC4)cc3)c3ccc(OCCN4CCCCC4)cc3CC2)cc1 ?
Output line: 25.9

----------
Counter-ions that a name gives are not always drawn.
For SNB-75, measured log10(GI50) is reported for the entries below.
Values below are the log10 of the recorded GI50, with nM as the unit.

Worked examples, 5 compounds total:
[
  {
    "Compound": "c1ccc(C2=C(c3ccc(OCCN4CCCCC4)cc3)c3ccc(OCCN4CCCCC4)cc3CC2)cc1 [Naforidaifen C]",
    "log10(GI50)": 3.18
  },
  {
    "Compound": "CC/C(=C(\\c1ccccc1)c1ccc(OCCN(C)C)cc1)c1ccccc1 [TAM, tamoxifen citrate, reference compound]",
    "log10(GI50)": 3.70
  },
  {
    "Compound": "CCN(CC)CCOc1ccc(C2=C(c3ccccc3)CCc3cc(OCCN(CC)CC)ccc32)cc1 [Naforidaifen E]",
    "log10(GI50)": 3.18
  },
  {
    "Compound": "c1ccc(C2=C(c3ccc(OCCN4CCOCC4)cc3)c3ccc(OCCN4CCOCC4)cc3CC2)cc1 [Naforidaifen D]",
    "log10(GI50)": 4.31
  },
  {
    "Compound": "CN(C)CCOc1ccc(C2=C(c3ccccc3)CCc3cc(OCCN(C)C)ccc32)cc1 [Naforidaifen A]",
    "log10(GI50)": 3.17
  }
]

Input line: Hello, I am looking for reported log10(GI50) with SNB-75 for c1ccc(C2=C(c3ccc(OCCN4CCCC4)cc3)c3ccc(OCCN4CCCC4)cc3CC2)cc1 [Naforidaifen B] . Could you help?
Output line: 3.30

Input line: Hello, I am looking for reported log10(GI50) with SNB-75 for c1ccc(C2=C(c3ccc(OCCN4CCCCCC4)cc3)c3ccc(OCCN4CCCCCC4)cc3CC2)cc1 [Naforidaifen F] . Could you help?
Output line: 3.24

Input line: Hello, I am looking for reported log10(GI50) with SNB-75 for CN(C)CCCOc1ccc(C2=C(c3ccccc3)CCc3cc(OCCCN(C)C)ccc32)cc1 [Naforidaifen G] . Could you help?
Output line: 3.21
